Target: DP receptor (Homo sapiens)
Construct: endogenous in cells
Sequence (Q13258 1-359): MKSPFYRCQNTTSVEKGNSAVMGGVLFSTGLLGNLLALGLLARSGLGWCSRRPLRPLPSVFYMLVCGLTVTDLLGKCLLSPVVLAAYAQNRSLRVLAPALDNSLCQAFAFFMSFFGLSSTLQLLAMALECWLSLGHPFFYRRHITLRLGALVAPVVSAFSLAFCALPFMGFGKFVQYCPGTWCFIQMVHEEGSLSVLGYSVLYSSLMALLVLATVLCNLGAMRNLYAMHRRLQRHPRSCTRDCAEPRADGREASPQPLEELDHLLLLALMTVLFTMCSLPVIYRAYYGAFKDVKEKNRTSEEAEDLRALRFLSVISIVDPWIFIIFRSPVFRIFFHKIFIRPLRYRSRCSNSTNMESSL
Assay: cAMP assay with washed platelets (PGD2-stimulated cAMP, HTRF)
Details: 100 nM PGD2, cAMP by HTRF, read-out: IC50 (50% DP-inhibitory concentration in the cAMP assay)
pIC50: −log10 of the molar value.
Measurement Label: pIC50

// known answers, use as guide
CC(C)Oc1ccc(S(=O)(=O)N2CCC(c3cn(CC(=O)O)c4ncccc34)CC2)cc1 ... 9.24
CC(C)Oc1ccc(S(=O)(=O)N2CCC(c3cn(CC(=O)O)c4nc(-c5ccc(F)cc5)ccc34)CC2)cc1 ... 9.06
COc1ccc2c(C3CCN(S(=O)(=O)c4ccc(OC(C)C)cc4)CC3)cn(CC(=O)O)c2n1 ... 9.48
CC(C)Oc1ccc(S(=O)(=O)N2CCC(c3cn(CC(=O)O)c4nc(-c5ccco5)ccc34)CC2)cc1 ... 8.77

P: CC(C)Oc1ccc(S(=O)(=O)N2CCC(c3cn(CC(=O)O)c4nc(-c5ccccn5)ccc34)CC2)cc1
Q: CC[C@@H](C)Oc1ccc(S(=O)(=O)N2CCC(c3cn(CC(=O)O)c4ncccc34)CC2)cc1
R: CC(C)Oc1ccc(S(=O)(=O)N2CCC(c3cn(CC(=O)O)c4nc(Br)ccc34)CC2)cc1
Qu. Could you please order the items by pIC50, going from the lowest number to the highest? Present the labels in the sequence the task asks for.
Ans. P, Q, R
(P: 8.66, Q: 9.03, R: 9.29)

###

Target: DP receptor (Homo sapiens, UniProt Q13258)
Construct: endogenous in cells
Sequence (Q13258 1-359): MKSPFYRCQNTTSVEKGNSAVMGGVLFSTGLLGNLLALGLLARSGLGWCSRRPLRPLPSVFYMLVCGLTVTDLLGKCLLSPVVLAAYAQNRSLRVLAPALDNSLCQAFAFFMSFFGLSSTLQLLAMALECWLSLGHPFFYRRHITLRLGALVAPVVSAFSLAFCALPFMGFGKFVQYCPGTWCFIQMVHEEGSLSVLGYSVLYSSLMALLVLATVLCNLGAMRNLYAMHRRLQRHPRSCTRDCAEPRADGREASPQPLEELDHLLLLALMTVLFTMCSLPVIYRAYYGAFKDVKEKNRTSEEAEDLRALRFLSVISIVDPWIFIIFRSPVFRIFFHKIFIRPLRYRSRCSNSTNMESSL
Test: Receptor binding assay, [3H]-PGD2, platelet membrane
Conditions: [3H]-PGD2, human platelet membrane
Measurement Label: Ki (nM)

1: CC(C)Oc1ccc(S(=O)(=O)N2CCC(c3cn(CC(=O)O)c4nc(NC(=O)OC(C)(C)C)ccc34)CC2)cc1
2: CC(C)Oc1ccc(S(=O)(=O)N2CCC(c3cn(CC(=O)O)c4nc(-c5ccc(F)cc5)ccc34)CC2)cc1
3: CC[C@@H](C)Oc1ccc(S(=O)(=O)N2CCC(c3cn(CC(=O)O)c4ncccc34)CC2)cc1
Qu. Order the records so the highest Ki appears first and the lowest last. Provide the ranking by listing each label in its place in the requested order.
Ans. 3, 1, 2
